Target: human recombinant CTSC (Homo sapiens (Human))
Sequence (P53634 25-134): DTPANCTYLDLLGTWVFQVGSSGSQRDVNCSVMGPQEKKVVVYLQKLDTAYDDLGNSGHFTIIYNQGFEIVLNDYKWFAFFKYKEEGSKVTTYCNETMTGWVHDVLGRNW
Sequence (P53634 231-394): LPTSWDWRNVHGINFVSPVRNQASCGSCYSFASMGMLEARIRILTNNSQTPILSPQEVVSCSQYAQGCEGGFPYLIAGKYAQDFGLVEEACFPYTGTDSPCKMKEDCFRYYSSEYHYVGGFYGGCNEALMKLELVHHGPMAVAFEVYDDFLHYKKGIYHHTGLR
Sequence (P53634 395-463): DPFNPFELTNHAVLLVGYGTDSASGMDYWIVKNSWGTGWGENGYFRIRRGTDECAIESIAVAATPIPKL
Experiment: CTSC inhibition assay (in vitro), fluorescent substrate GF-AFC
Format: biochemical
Settings: 30 μmol/L GF-AFC, pH 5.0, 25° C.
measurementLabel: IC50 (nM)

In the examples that follow, each entry is paired with its recorded IC50.
# compound, IC50, nM
rows = [
    ("CN(CC1CCC(F)(F)CC1)C(=O)C1(C(F)(F)F)CCN(C(=O)[C@@H]2CC[C@@]3(CCO3)CN2)CC1", 10.4),
    ("O=C([C@@H]1C[C@@H](O)C2(CCC2)CN1)N1CCC(c2noc(C3CC(F)(F)C3)n2)(c2nccs2)CC1", 2.92),
]

(P) O=C([C@@H]1C[C@@H](O)C2(CCC2)CN1)N1CCC(c2noc(C3CC(F)(F)C3)n2)(C2CC2)CC1
(Q) O=C([C@@H]1C[C@@H](O)C2(CCC2)CN1)N1CCC(c2noc(C3CCCOC3)n2)(C(F)(F)F)CC1 (stereo partly shown)
Of the pair P and Q , name the member with the lesser recorded IC50. State the label of the item chosen.
P
(P: 1.73 nM, Q: 4.09 nM)

* * *

Molecular target: CTSC in U937 cells (Homo sapiens (Human), UniProt P53634)
Sequence (P53634 25-463): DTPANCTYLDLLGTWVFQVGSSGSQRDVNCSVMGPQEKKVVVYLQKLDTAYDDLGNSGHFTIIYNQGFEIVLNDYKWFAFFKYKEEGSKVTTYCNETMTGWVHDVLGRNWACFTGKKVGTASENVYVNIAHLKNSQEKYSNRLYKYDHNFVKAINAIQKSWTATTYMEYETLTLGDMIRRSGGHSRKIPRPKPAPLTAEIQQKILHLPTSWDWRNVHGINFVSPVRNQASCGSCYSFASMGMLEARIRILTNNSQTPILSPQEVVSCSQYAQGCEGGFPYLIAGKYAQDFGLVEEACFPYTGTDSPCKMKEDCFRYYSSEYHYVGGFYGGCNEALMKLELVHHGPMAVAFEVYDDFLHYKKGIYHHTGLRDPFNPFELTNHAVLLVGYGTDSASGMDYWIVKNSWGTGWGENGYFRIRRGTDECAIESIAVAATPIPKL
Assay: Intracellular CTSC inhibition assay (in vitro), LLOMe-induced cell death in U937 cells
Type: cell-based
Conditions: 3 hours culture, CellTiter-Glo
measurementLabel: IC50 (nM)
Use nM as the unit, but write only the number.

As a guide, the following entries are already answered.
# mol, testedTarget, IC50 / nM
rows = [
    ("O=C([C@@H]1C[C@@H](O)C2(CCC2)CN1)N1CCC(c2nc(C3CC(F)(F)C3)no2)(N2CCOCC2)CC1", "CTSC in U937 cells (Homo sapiens (Human), UniProt P53634)", 30.1),
    ("CN(CC1CCC(F)(F)CC1)C(=O)C1(C(F)(F)F)CCN(C(=O)[C@@H]2CC[C@@]3(CCO3)CN2)CC1", "CTSC in U937 cells (Homo sapiens (Human), UniProt P53634)", 23.6),
    ("O=C([C@@H]1C[C@@H](O)C2(CCC2)CN1)N1CCC(c2nnn(-c3ccc(F)cc3)n2)CC1", "CTSC in U937 cells (Homo sapiens (Human), UniProt P53634)", 0.6),
    ("O=C([C@@H]1C[C@@H](O)C2(CCC2)CN1)N1CCC(c2cn(C3CCC(F)(F)CC3)nn2)(C(F)(F)F)CC1", "CTSC in U937 cells (Homo sapiens (Human), UniProt P53634)", 13.7),
    ("CC(C)C1(c2noc(C3CCC(F)(F)CC3)n2)CCN(C(=O)[C@@H]2CCC3(CC3)CN2)CC1", "CTSC in U937 cells (Homo sapiens (Human), UniProt P53634)", 42.5),
]

May I ask what IC50 has been recorded for "O=C([C@@H]1C[C@@H](O)C2(CCC2)CN1)N1CCC(n2nnc(-c3ccc(F)cc3F)n2)CC1" ?
0.61

Request the reported IC50 associated with "CC(C)C1(c2noc(C3CCC(F)(F)CC3)n2)CCN(C(=O)[C@@H]2C[C@@H](O)C3(CCC3)CN2)CC1"
0.25

For the compound shown here, "COc1cccc(-n2nnc(C3CCN(C(=O)[C@@H]4C[C@@H](O)C5(CCC5)CN4)CC3)n2)c1" , give the reported IC50.
3.48

Field request: IC50 | item: "O=C([C@@H]1C[C@@H](O)C2(CCC2)CN1)N1CCC(c2nnn(C3CCC(F)(F)CC3)n2)CC1"
3.26

Need IC50 of "O=C([C@@H]1C[C@@H](O)C2(CCC2)CN1)N1CCC(c2ccsc2)(c2noc(C3CC(F)(F)C3)n2)CC1" , thanks.
0.75

* * *

Molecular target: human recombinant CTSC (Homo sapiens (Human))
Experiment: CTSC inhibition assay (in vitro), fluorescent substrate GF-AFC
Format: biochemical
Settings: 30 μmol/L GF-AFC, pH 5.0, 25° C.
measurementLabel: IC50 (nM)

These recorded examples may help you get a feel for the data.
# compound, measurementLabel, val
measured = [
    ("O=C([C@@H]1C[C@@H](O)C2(CCC2)CN1)N1CCC(c2nnn(-c3ccc(F)cc3)n2)(C(F)(F)F)CC1 [Example 95]", "IC50", 3.02),
    ("CC(C)C1(c2nc(C3CCC(F)(F)CC3)no2)CCN(C(=O)[C@@H]2C[C@@H](O)C3(CCC3)CN2)CC1 [Example 12]", "IC50", 1.03),
]

(I) CN(C1(c2nc(C3CC(F)(F)C3)no2)CCN(C(=O)[C@@H]2C[C@@H](O)C3(CCC3)CN2)CC1)S(C)(=O)=O [Example 78]
(II) Cc1cnn(C2(c3noc(C4CC(F)(F)C4)n3)CCN(C(=O)[C@@H]3C[C@@H](O)C4(CCC4)CN3)CC2)c1 [Example 71]
Between these two entries, I and II , state which has the higher IC50. To answer, give the label that identifies your chosen option.
I
(I: 5.68 nM, II: 3.73 nM)

* * *

Molecular target: human recombinant CTSC (Homo sapiens (Human))
Assay: CTSC inhibition assay (in vitro), fluorescent substrate GF-AFC
Format: biochemical
Details: 30 μmol/L GF-AFC, pH 5.0, 25° C.
measurementLabel: IC50 (nM)

# compound, testedTarget, measurementLabel, readoutUnits, val
data = [
    ("CC(C)C1(C(=O)NC2CCC(F)(F)CC2)CN(C(=O)[C@@H]2C[C@@H](O)C3(CCC3)CN2)C1", "human recombinant CTSC (Homo sapiens (Human))", "IC50", "nM", 1.9),
    ("O=C([C@@H]1C[C@@H](O)C2(CCC2)CN1)N1CCC(C(=O)N2CCO[C@H](C(F)(F)F)C2)(C(F)(F)F)CC1", "human recombinant CTSC (Homo sapiens (Human))", "IC50", "nM", 13.3),
    ("C[C@]1(F)C[C@H](c2nc(C3(C(F)(F)F)CCN(C(=O)[C@@H]4C[C@@H](O)C5(CCC5)CN4)CC3)no2)C1", "human recombinant CTSC (Homo sapiens (Human))", "IC50", "nM", 4.43),
    ("CC(C)C1(c2nc(C3CC(F)(F)C3)no2)CN(C(=O)[C@@H]2C[C@@H](O)C3(CCC3)CN2)C1", "human recombinant CTSC (Homo sapiens (Human))", "IC50", "nM", 3.12),
    ("O=C([C@@H]1C[C@@H](O)C2(CCC2)CN1)N1CCC(c2nc(C3CC(F)(F)C3)no2)(N2CCOCC2)CC1", "human recombinant CTSC (Homo sapiens (Human))", "IC50", "nM", 4.15),
    ("O=C([C@@H]1C[C@@H](O)C2(CCC2)CN1)N1CCC(c2nnn(-c3ccc(F)c(F)c3)n2)CC1", "human recombinant CTSC (Homo sapiens (Human))", "IC50", "nM", 1.89),
    ("CC(C)C1(C(=O)NCC2CCC(F)(F)CC2)CN(C(=O)[C@@H]2CC[C@@]3(CCO3)CN2)C1", "human recombinant CTSC (Homo sapiens (Human))", "IC50", "nM", 0.24),
    ("CC(C)C1(c2noc(C3CCC(F)(F)CC3)n2)CCN(C(=O)[C@@H]2CCC3(CC3)CN2)CC1", "human recombinant CTSC (Homo sapiens (Human))", "IC50", "nM", 53.5),
    ("CC(C)C1(C(=O)N(C)CC2CCC(F)(F)CC2)CN(C(=O)[C@@H]2C[C@@H](O)C3(CCC3)CN2)C1", "human recombinant CTSC (Homo sapiens (Human))", "IC50", "nM", 1.01),
    ("O=C(c1nc(C2(C(F)(F)F)CCN(C(=O)[C@@H]3C[C@@H](O)C4(CCC4)CN3)CC2)no1)N1CCC(F)(F)CC1", "human recombinant CTSC (Homo sapiens (Human))", "IC50", "nM", 3.07),
]

(I) CC1(c2nc(C3(C(F)(F)F)CCN(C(=O)[C@@H]4C[C@@H](O)C5(CCC5)CN4)CC3)no2)CC(F)(F)C1
(II) O=C([C@@H]1C[C@@H](O)C2(CCC2)CN1)N1CCC(c2ccnc(N3CCC(F)(F)CC3)c2)CC1
Return label of the item with the larger IC50. Candidates: I , II . Lab log: write the label of the selected item as the result.
I

* * *

Target: human recombinant CTSC (Homo sapiens (Human))
Test: CTSC inhibition assay (in vitro), fluorescent substrate GF-AFC
Format: biochemical
Conditions: 30 μmol/L GF-AFC, pH 5.0, 25° C.
measurementLabel: IC50 (nM)

# mol, IC50 / nM
rows = [
    ("CC(C)C1(c2nnc(C3CCC(F)(F)CC3)o2)CCN(C(=O)[C@@H]2C[C@@H](O)C3(CCC3)CN2)CC1", 1.35),
    ("O=C([C@@H]1C[C@@H](O)C2(CCC2)CN1)N1CCC(C(=O)NCC2CCC(F)(F)CC2)(C(F)(F)F)CC1", 1.03),
    ("O=C([C@@H]1C[C@@H](O)C2(CCC2)CN1)N1CCC(n2nnc(-c3ccc(F)cc3F)n2)CC1", 1.46),
]
